Tested on: Cell-associated proTGFb1 (hGARP, hLRRC33)
Test: BLI (OCTET), average over cell-associated complexes
Assay type: binding, human
Settings: average KD of (E) and (F), read-out: (G) Cell AVRG
Listing of recorded Kd by entry.
assay_metric: Kd

{"columns": ["molecule", "assay_metric", "observed"],
 "data": [
  ["Ab21: proTGFβ1 antibody; VH SEQ ID NO: 129, VL SEQ ID NO: 15 (antibody, V domains shown) VH: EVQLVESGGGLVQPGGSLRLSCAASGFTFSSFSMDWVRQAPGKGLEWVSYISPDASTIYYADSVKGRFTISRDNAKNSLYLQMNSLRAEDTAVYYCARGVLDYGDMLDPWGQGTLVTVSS VL: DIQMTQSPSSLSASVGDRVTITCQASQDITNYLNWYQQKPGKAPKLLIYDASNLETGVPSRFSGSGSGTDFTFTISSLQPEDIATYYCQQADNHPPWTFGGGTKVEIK", "Kd", "0.644 nM"],
  ["Ab29: proTGFβ1 antibody; VH SEQ ID NO: 137, VL SEQ ID NO: 15 (antibody, V domains shown) VH: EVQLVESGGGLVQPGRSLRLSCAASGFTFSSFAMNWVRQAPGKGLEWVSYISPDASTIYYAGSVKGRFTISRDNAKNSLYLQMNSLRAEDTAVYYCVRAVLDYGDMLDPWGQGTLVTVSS VL: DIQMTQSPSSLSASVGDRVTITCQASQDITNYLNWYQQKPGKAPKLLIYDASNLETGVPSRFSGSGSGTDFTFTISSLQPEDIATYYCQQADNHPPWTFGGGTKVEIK", "Kd", "0.304 nM"],
  ["Ab26: proTGFβ1 antibody; VH SEQ ID NO: 134, VL SEQ ID NO: 15 (antibody, V domains shown) VH: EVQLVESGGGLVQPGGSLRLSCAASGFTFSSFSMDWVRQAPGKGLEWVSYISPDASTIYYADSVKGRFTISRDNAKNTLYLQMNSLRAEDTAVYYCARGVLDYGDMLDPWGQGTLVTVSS VL: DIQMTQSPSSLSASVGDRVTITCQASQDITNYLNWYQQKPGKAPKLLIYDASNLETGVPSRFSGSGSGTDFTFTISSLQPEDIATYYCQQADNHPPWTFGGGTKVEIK", "Kd", "0.492 nM"],
  ["Ab31: proTGFβ1 antibody; VH SEQ ID NO: 139, VL SEQ ID NO: 15 (antibody, V domains shown) VH: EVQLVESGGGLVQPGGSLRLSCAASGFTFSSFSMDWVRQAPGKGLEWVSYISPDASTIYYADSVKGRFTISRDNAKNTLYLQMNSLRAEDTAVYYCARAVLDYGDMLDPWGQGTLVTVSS VL: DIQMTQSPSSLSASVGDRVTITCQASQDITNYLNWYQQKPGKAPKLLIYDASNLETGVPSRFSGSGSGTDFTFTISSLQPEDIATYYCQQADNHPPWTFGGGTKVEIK", "Kd", "0.495 nM"],
  ["Ab25: proTGFβ1 antibody; VH SEQ ID NO: 133, VL SEQ ID NO: 15 (antibody, V domains shown) VH: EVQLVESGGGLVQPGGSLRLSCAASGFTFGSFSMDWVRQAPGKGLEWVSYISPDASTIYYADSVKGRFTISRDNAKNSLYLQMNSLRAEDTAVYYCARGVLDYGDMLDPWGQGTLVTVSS VL: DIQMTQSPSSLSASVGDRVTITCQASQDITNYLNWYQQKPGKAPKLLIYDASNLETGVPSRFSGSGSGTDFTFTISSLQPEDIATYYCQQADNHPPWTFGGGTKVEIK", "Kd", "0.449 nM"]
]}

Values were extracted from patent US12252531B2.
